Test: Quantitative High-Throughput drug screen in 47 multiple myeloma cell lines against the NCATS MIPE library collection: KMS28PE_JCRB cell viability assay (AID 1918983); further: nearly all actives have a fitted effect of over 35% in size
Settings: KMS28PE multiple myeloma viability, CellTiter-Glo ATP, 48 h; series mostly up to 45.8 µM
Records with an inconclusive call do not appear. Calls of active or inactive are those of the source. The call rests on the fitted dose curve; in most records, active means well fitted cell-killing curve with a large enough effect; inconclusive means small, poorly fitted or top-dose-only effect, or effect the other way; inactive means no such curve, though single readings can be large or run the other way.
Pick one and only one: true (1) = active, false (0) = inactive

Request: For this compound, state the assay outcome: COc1ccc2c(c1)CC[C@H]1[C@@H]2CC[C@]2(C)[C@@H](NCCCCCCN3C(=O)C=CC3=O)CC[C@H]12
Response: false (0)

Request: GET /call?item= C[C@@H]1CCO[C@H]2Cn3cc(C(=O)NCc4ccc(F)cc4F)c(=O)c(O)c3C(=O)N12 returns the recorded outcome of this test.
Response: true (1)

Request: Returns: the outcome recorded for OC[C@H]1O[C@@H](Oc2ccc(O)cc2)[C@H](O)[C@@H](O)[C@H]1O in this assay.
Response: false (0)

Request: Which result was noted for this compound in the test: COc1cc2c(cc1OC)CC(=O)N(CCCN(C)C[C@H]1Cc3cc(OC)c(OC)cc31)CC2
Response: false (0)

Request: State the result this test recorded for CN(C)CCOc1ccc(C(=C(CCCl)c2ccccc2)c2ccccc2)cc1 .
Response: true (1)
